Below, each entry is listed with its recorded Half-life.
experiment: In vitro pharmacokinetics: metabolic stability in liver microsome; format: in vitro ADME; settings: human liver microsome 1 mg/ml, 20 μM compound

These recorded examples may help you get a feel for the data.
>  <entry.smiles>
CO/C=C(/C(=O)OC)c1ccccc1COc1ccc(C2OCCCO2)cc1

>  <Half-life>
0.76 h

$$$$
>  <entry.smiles>
C=CCOc1ccc(OCc2ccccc2/C(=C\OC)C(=O)OC)cc1

>  <Half-life>
>3 h

$$$$
>  <entry.smiles>
C=CCOc1cccc(OCc2ccccc2/C(=C\OC)C(=O)OC)c1

>  <Half-life>
1.77 h

$$$$
>  <entry.smiles>
C=CCOc1ccc(OCc2cc(Cl)ccc2/C(=C\OC)C(=O)OC)cc1

>  <Half-life>
>3 h

$$$$
>  <entry.smiles>
CO/C=C(/C(=O)OC)c1ccccc1COc1cccc(OCCN2CCOCC2)c1

>  <Half-life>
>3 h

$$$$

stdin: Dear colleague, I am looking for the recorded Half-life of the following compound: CCCCCCOc1cccc(/C(C)=N/OCc2ccccc2/C(=C\OC)C(=O)OC)c1
stdout: 0.615 h

---

experiment: In vivo pharmacokinetics using female mice (serum concentration, HPLC); details: I.V.
readout.label: AUC (area under the curve of blood concentration versus time) (µg·h/mL)
Number only, in µg·h/mL; omit the unit.

stdin: Dear colleague, I am looking for the recorded AUC (area under the curve of blood concentration versus time) of the following molecule: CO/C=C(/C(=O)OC)c1ccccc1COc1cccc(N2CCCCC2)c1
stdout: 112.6

stdin: Dear colleague, I am looking for the recorded AUC (area under the curve of blood concentration versus time) of the following molecule: CO/C=C(/C(=O)OC)c1ccccc1COc1cccc(OCCN2CCOCC2)c1
stdout: 477.6

stdin: Dear colleague, I am looking for the recorded AUC (area under the curve of blood concentration versus time) of the following molecule: CO/C=C(/C(=O)OC)c1ccc(Cl)cc1COc1ccc(OCCOC)cc1
stdout: 47.2

stdin: Dear colleague, I am looking for the recorded AUC (area under the curve of blood concentration versus time) of the following molecule: CO/C=C(/C(=O)OC)c1ccccc1COc1cccc(CN2CCOCC2)c1
stdout: 97.2

stdin: Dear colleague, I am looking for the recorded AUC (area under the curve of blood concentration versus time) of the following molecule: CO/C=C(/C(=O)OC)c1ccccc1COc1cccc(N2CCCC2)n1
stdout: 176.4

---

tested on: osteoclasts; test: Inhibitory effect on resorption activity of osteoclast (resorption pit area on calcium phosphate-coated plate); format: cell-based, mice; conditions: 1 uM, compared to control
Below, each entry is listed with its recorded Reduction (%) of the resorption pit area of osteoclasts.
Number only, in %; omit the unit.

>  <compound>
CO/C=C(/C(=O)OC)c1ccccc1COc1cccc(C(F)CC(C)(F)F)c1 (centres unmarked)

>  <display.unit>
%

>  <data.value>
100

$$$$
>  <compound>
CO/C=C(/C(=O)OC)c1ccccc1COc1ccc(OCC(C)C)cc1

>  <display.unit>
%

>  <data.value>
100

$$$$
>  <compound>
CCC(C)Oc1ccc(OCc2cc(F)ccc2/C(=C\OC)C(=O)OC)cc1 (centres unmarked)

>  <display.unit>
%

>  <data.value>
100

$$$$
>  <compound>
CCC(C)Oc1ccc(OCc2ccccc2/C(=C\OC)C(=O)OC)cc1 (centres unmarked)

>  <display.unit>
%

>  <data.value>
100

$$$$
>  <compound>
CO/C=C(/C(=O)OC)c1ccc(Cl)cc1COc1ccc(OCC2CC2)cc1

>  <display.unit>
%

>  <data.value>
100

$$$$

stdin: Dear colleague, I am looking for the recorded Reduction (%) of the resorption pit area of osteoclasts of the following compound: CO/C=C(/C(=O)OC)c1ccccc1COc1cccc(OCC=C(C)C)c1
stdout: 100

stdin: Dear colleague, I am looking for the recorded Reduction (%) of the resorption pit area of osteoclasts of the following compound: CCCCCCCOc1cccc(OCc2ccccc2/C(=C\OC)C(=O)OC)c1
stdout: 100

stdin: Dear colleague, I am looking for the recorded Reduction (%) of the resorption pit area of osteoclasts of the following compound: CO/C=C(/C(=O)OC)c1ccccc1COc1ccc(OC2CCCC2)cc1
stdout: 100

stdin: Dear colleague, I am looking for the recorded Reduction (%) of the resorption pit area of osteoclasts of the following compound: CO/C=C(/C(=O)OC)c1ccc(Cl)cc1COc1cccc(CO)c1
stdout: 100

stdin: Dear colleague, I am looking for the recorded Reduction (%) of the resorption pit area of osteoclasts of the following compound: CO/C=C(/C(=O)OC)c1ccccc1COc1cccc(OCC(C)C)c1
stdout: 88

stdin: Dear colleague, I am looking for the recorded Reduction (%) of the resorption pit area of osteoclasts of the following compound: CCCCCCCCc1cccc(OCc2ccccc2/C(=C\OC)C(=O)OC)c1
stdout: 100

---

tested on: osteoclasts; assay: Inhibitory effect on resorption activity of osteoclast (resorption pit area on calcium phosphate-coated plate); format: cell-based, mice; conditions: 1 uM, compared to control
Below, each entry is listed with its recorded Reduction (%) of the resorption pit area of osteoclasts.
Number only, in %; omit the unit.

These recorded examples may help you get a feel for the data.
>  <molecule>
CCCCCCOc1ccc(OCc2cc(Cl)ccc2/C(=C\OC)C(=O)OC)cc1

>  <display.unit>
%

>  <data.value>
94

$$$$
>  <molecule>
CCC(C)Oc1cccc(OCc2ccccc2/C(=C\OC)C(=O)OC)c1 (stereo not drawn)

>  <display.unit>
%

>  <data.value>
100

$$$$
>  <molecule>
CO/C=C(/C(=O)OC)c1ccccc1COc1ccc(C(C)F)cc1 (stereo not drawn)

>  <display.unit>
%

>  <data.value>
100

$$$$
>  <molecule>
C=CCOc1ccc(OCc2cc(Cl)ccc2/C(=C\OC)C(=O)OC)cc1

>  <display.unit>
%

>  <data.value>
100

$$$$
>  <molecule>
CO/C=C(/C(=O)OC)c1ccccc1COc1cccc(OCCN2CCOCC2)c1

>  <display.unit>
%

>  <data.value>
100

$$$$
>  <molecule>
CO/C=C(/C(=O)OC)c1ccccc1COc1cccc(C(F)CC(C)=O)c1 (stereo not drawn)

>  <display.unit>
%

>  <data.value>
100

$$$$
>  <molecule>
CCCOc1ccc(OCc2ccccc2/C(=C\OC)C(=O)OC)cc1

>  <display.unit>
%

>  <data.value>
100

$$$$
>  <molecule>
CCCCCCOc1cccc(/C(C)=N/OCc2ccccc2/C(=C\OC)C(=O)OC)c1

>  <display.unit>
%

>  <data.value>
57

$$$$

We now examine a further molecule.
stdin: Dear colleague, I am looking for the recorded Reduction (%) of the resorption pit area of osteoclasts of the following molecule: C=CCCCCCCOc1cccc(OCc2ccccc2/C(=C\OC)C(=O)OC)c1
stdout: 100

---

tested on: MG-63 cells; assay: Cytotoxicity test against osteoblast (MTT); format: cell-based, human; conditions: 1 uM
Below, each entry is listed with its recorded relative absorbance relative to that of the control (set as 100), MTT.

>  <entry.smiles>
CCCCCCOc1ccc(OCc2cc(Cl)ccc2/C(=C\OC)C(=O)OC)cc1

>  <data.value>
79

$$$$
>  <entry.smiles>
CO/C=C(/C(=O)OC)c1ccccc1COc1cccc(OCCN2CCOCC2)c1

>  <data.value>
115

$$$$
>  <entry.smiles>
C=CCOc1ccc(OCc2ccccc2/C(=C\OC)C(=O)OC)cc1

>  <data.value>
108

$$$$
>  <entry.smiles>
C=CCCCCCCOc1cccc(OCc2ccccc2/C(=C\OC)C(=O)OC)c1

>  <data.value>
111

$$$$
>  <entry.smiles>
C=CCOc1ccc(OCc2cc(Cl)ccc2/C(=C\OC)C(=O)OC)cc1

>  <data.value>
104

$$$$
>  <entry.smiles>
C=CCOc1cccc(OCc2ccccc2/C(=C\OC)C(=O)OC)c1

>  <data.value>
105

$$$$
>  <entry.smiles>
CO/C=C(/C(=O)OC)c1ccccc1CON=C(C)c1cccc(OCCN2CCOCC2)c1

>  <data.value>
106

$$$$
>  <entry.smiles>
CCCCCCOc1cccc(/C(C)=N/OCc2ccccc2/C(=C\OC)C(=O)OC)c1

>  <data.value>
85

$$$$
>  <entry.smiles>
CO/C=C(/C(=O)OC)c1ccc(Cl)cc1COc1ccc(OCC=C(C)C)cc1

>  <data.value>
94

$$$$
>  <entry.smiles>
CO/C=C(/C(=O)OC)c1ccccc1COc1cccc(C(OC)OC)c1

>  <data.value>
107

$$$$

We now examine a further compound.
stdin: Recall the recorded relative absorbance relative to that of the control (set as 100), MTT for CO/C=C(/C(=O)OC)c1ccc(Cl)cc1COc1ccc(OCCOC)cc1 with MG-63 cells and state it.
stdout: 106

---

test system: MG-63 cells; assay: Cytotoxicity test against osteoblast (MTT); format: cell-based, human; conditions: 0.33 uM
Below, each entry is listed with its recorded relative absorbance relative to that of the control (set as 100), MTT.
A bare number is all that is needed in reply.

These recorded examples may help you get a feel for the data.
>  <entry.smiles>
CCCCCCOc1ccc(OCc2cc(Cl)ccc2/C(=C\OC)C(=O)OC)cc1

>  <data.value>
114

$$$$
>  <entry.smiles>
CO/C=C(/C(=O)OC)c1ccccc1COc1cccc(C(OC)OC)c1

>  <data.value>
108

$$$$

stdin: Dear colleague, I am looking for the recorded relative absorbance relative to that of the control (set as 100), MTT of the following molecule: C=CCCCCCCOc1cccc(OCc2ccccc2/C(=C\OC)C(=O)OC)c1
stdout: 101

stdin: Dear colleague, I am looking for the recorded relative absorbance relative to that of the control (set as 100), MTT of the following molecule: CO/C=C(/C(=O)OC)c1ccccc1CON=C(C)c1cccc(OCCN2CCOCC2)c1
stdout: 106

stdin: Dear colleague, I am looking for the recorded relative absorbance relative to that of the control (set as 100), MTT of the following molecule: C=CCOc1ccc(OCc2cc(Cl)ccc2/C(=C\OC)C(=O)OC)cc1
stdout: 107

stdin: Dear colleague, I am looking for the recorded relative absorbance relative to that of the control (set as 100), MTT of the following molecule: C=CCOc1ccc(OCc2ccccc2/C(=C\OC)C(=O)OC)cc1
stdout: 111

stdin: Dear colleague, I am looking for the recorded relative absorbance relative to that of the control (set as 100), MTT of the following molecule: CCCCCCOc1cccc(/C(C)=N/OCc2ccccc2/C(=C\OC)C(=O)OC)c1
stdout: 105

stdin: Dear colleague, I am looking for the recorded relative absorbance relative to that of the control (set as 100), MTT of the following molecule: C=CCOc1cccc(OCc2ccccc2/C(=C\OC)C(=O)OC)c1
stdout: 101

stdin: Dear colleague, I am looking for the recorded relative absorbance relative to that of the control (set as 100), MTT of the following molecule: CO/C=C(/C(=O)OC)c1ccc(Cl)cc1COc1ccc(OCC=C(C)C)cc1
stdout: 81

stdin: Dear colleague, I am looking for the recorded relative absorbance relative to that of the control (set as 100), MTT of the following molecule: CO/C=C(/C(=O)OC)c1ccccc1COc1cccc(OCCN2CCOCC2)c1
stdout: 98

stdin: Dear colleague, I am looking for the recorded relative absorbance relative to that of the control (set as 100), MTT of the following molecule: CO/C=C(/C(=O)OC)c1ccc(Cl)cc1COc1ccc(OCCOC)cc1
stdout: 108
